- Protocol notes: Displacement of [125I]IMPY from amyloid beta 1-42
Measured property: pKi
Interpret pKi as the negative base-10 log of the concentration measured in mol/L.

I have this compound here, `CN(C)c1ccc(-c2cc3cc(OCCOCCOCC[18F])ccc3o2)cn1` , and I need its recorded pKi.
9.05

Data origin, for the record: ChEMBL document CHEMBL1255186
